# run.description: NCI Yeast Anticancer Drug Screen. Data for the rad52 strain (AID 147)
# applied.conditions: S. cerevisiae rad52 mutant growth inhibition; at 33.0 µM; hits give high values
This is part of a sample that, as a whole, favours compounds with a hit. Of some 79,000 tested, about 15% had one in any assay.
Categorize each record by its growth inhibition using low bin: < 20%; mid bin: ≥ 20% and < 70%; high bin: ≥ 70%

Hi there! Could you help me figure out the category for `CC(C)OC(=O)c1ccc(CCc2cc(O)c(Br)cc2O)cc1` please? mid bin

Tag the class for `Cn1c(-c2ccc(/C=N\N3CCN(/N=C/c4ccc(-c5c[n+]6ccccc6n5C)cc4)CC3)cc2)c[n+]2ccccc12` mid bin

Which growth inhibition category applies to CCOC(=O)C(Br)C(Br)c1ccccc1Cl (stereo not given) here? high bin

Class (by measured growth inhibition) for `Cc1ccc2nc(-c3cccc([N+](=O)[O-])c3)oc(=O)c2c1` low bin

Input `CCN(CC)CCOc1cc(C)c2cc(Cc3ccccc3)ccc2n1` ; output its category low bin

For this molecule, which bin applies? `CCCCCOC(=S)SC(=O)OCC` mid bin

Others:
Could you place `O=C1NC(SSC2=NNC3(C(=O)N2)c2ccccc2-c2ccccc23)=NNC12c1ccccc1-c1ccccc12` in its proper category? Many thanks. low bin
